B1: library; numbered along this chain (parent)
chain: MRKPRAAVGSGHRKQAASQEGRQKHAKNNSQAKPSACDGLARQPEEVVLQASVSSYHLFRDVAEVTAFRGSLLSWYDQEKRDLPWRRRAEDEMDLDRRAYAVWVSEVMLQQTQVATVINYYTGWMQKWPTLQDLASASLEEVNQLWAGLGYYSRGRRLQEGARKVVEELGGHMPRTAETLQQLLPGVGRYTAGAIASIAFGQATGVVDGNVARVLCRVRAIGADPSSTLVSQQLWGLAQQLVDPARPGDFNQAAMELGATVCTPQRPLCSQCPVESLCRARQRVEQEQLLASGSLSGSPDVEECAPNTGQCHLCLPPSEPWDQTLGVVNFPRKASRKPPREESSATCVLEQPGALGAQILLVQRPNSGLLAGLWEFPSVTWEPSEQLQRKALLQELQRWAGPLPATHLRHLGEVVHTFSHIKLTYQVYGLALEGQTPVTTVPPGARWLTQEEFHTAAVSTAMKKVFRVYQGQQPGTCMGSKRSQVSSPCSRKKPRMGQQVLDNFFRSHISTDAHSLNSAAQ

variants of: B1; experiment: 8OG:A repair function score (normalized; synonymous = 0, nonsense = -1) (normalized log-likelihood score); higher = more repair activity (WT-like); details: with 8OG:A DNA repair reporter (GFP) in HEK-293 MUTYH KO cells;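 also: cells sorted at 72 h after reporter transfection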
Outcome: Condition met for 8OG:A repair function score of at least -0.3; Condition not met for anything lower.

S55V :: Condition met
K492E :: Condition met
L169E :: Condition met
P129K :: Condition not met
A220F :: Condition not met
E375R :: Condition not met
